assay: Acute toxicity (DL 50) in mice; conditions: in vivo, ip, mouse, i.p., read-out: DL 50 souris
# maps each entry to its LD50
Give the number first and the unit second.

smiles_code=NCCc1cc(-c2ccccc2)c2ccccc2c1 reported_result="58 mg/kg"

Now turn to the next compound.
[ask] Give its LD50 value. Item: CN(C)Cc1cc(-c2ccccc2)c2ccccc2c1
[reply] 70 mg/kg
